Listing of Ki toward Cathepsin B (Homo sapiens, UniProt P07858), each taken from a published source.
Response body: numeric value in µM, unit text excluded.

Here are 3 molecules together with their reported answers.
• CC(C)C[C@H](NC(=O)[C@H](Cc1ccccc1)NC(=O)c1cnccn1)B(O)O = 160
• COc1nsc(N[C@@H](CC(C)C)C(=O)N2CCC[C@H]2C(=O)O)n1 = 2.6
• C[C@@H]1CC[C@H](NC(=O)C2(NC(=O)c3cc4sccc4s3)CCCCC2)C(=O)CN1S(=O)(=O)c1ccccn1 = 0.173

Now for the molecule whose Ki we want.
Given CCC[C@H](NC(=O)O[C@H](C(=O)N1CCOCC1)C1CCCCC1)C(=O)c1nc2ccccc2o1 , report its Ki on Cathepsin B (Homo sapiens, UniProt P07858). 4.04
